test system: SNB-19; assay: NCI tumour cell line growth inhibition, 48 h
Calls of active or inactive are those of the source. Rule as the data show it: active = GI50 up to about 1.1 µM and inactive = higher.
Tick one outcome: active, inactive

As a guide, the following entries are already answered.
[
  {
    "compound": "COc1ccc(CCN2CCN(CCCc3ccccc3)CC2)cc1",
    "experimental.target": "SNB-19",
    "assigned.class": "inactive"
  },
  {
    "compound": "NC(=S)N/N=C1\\c2ccccc2CCC1CCC1(O)CCc2ccccc2C1=O (configuration not stated)",
    "experimental.target": "SNB-19",
    "assigned.class": "inactive"
  }
]

Problem: Fill in: this test's call for Cc1cc(=O)oc2c(C)c3oc(CBr)c(Br)c3cc12 is ___
Result: inactive

Problem: Fill in: this test's call for CCOC(=O)N1CCN(c2c(N)nc(C)nc2O)CC1 is ___
Result: inactive

Problem: Fill in: this test's call for COc1cc2c(oc(=O)c3c4occc4cc(OC)c23)c2cccc(OCc3ccccc3)c12 is ___
Result: inactive

Problem: Fill in: this test's call for CC(Oc1ccc2c(=O)cc(-c3ccccc3)oc2c1)C(=O)O (configuration not stated) is ___
Result: inactive

Problem: Fill in: this test's call for COC(=O)c1cc(C(=O)OC)cc(-c2ccc3c(c2)-c2nc4c(c(-c5ccc(OC)cc5)c2CC3)CCc2ccc(-c3cc(C(=O)OC)cc(C(=O)OC)c3)cc2-4)c1 is ___
Result: inactive

Problem: Fill in: this test's call for CC(C)c1ccccc1SCc1cc(=O)cc(CSc2ccccc2C(C)C)o1 is ___
Result: inactive

Problem: Fill in: this test's call for O=C(/C(=C\c1ccccc1)CN1CCOCC1)c1ccc(Br)cc1 is ___
Result: inactive

Problem: Fill in: this test's call for NCCCNc1ccc2c3c(nn2CCNCCO)-c2c(O)ccc(O)c2C(=O)c13 is ___
Result: active

Problem: Fill in: this test's call for O=NN(CCCl)C(=O)N[C@H]1CCCC[C@@H]1Cl is ___
Result: inactive

Problem: Fill in: this test's call for COc1cc(C(=O)/C=C/c2ccc(OCCSCCCCCCCCCCSCCOc3ccc(/C=C/C(=O)c4cc(OC)c(OC)c(OC)c4)cc3)cc2)cc(OC)c1OC is ___
Result: inactive

###

system: HOP-92; test: NCI tumour cell line growth inhibition, 48 h
Active and inactive are the calls of the source. Rule as the data show it: active = GI50 up to about 1.1 µM and inactive = higher.
Provide the reported GI50 of each item.

Here's what some known entries look like.
[
  {
    "molecule": "CCN(CC)CCCNc1ncc(C)c2[nH]c3ccncc3c12",
    "value": "6.1 µM (inactive)"
  },
  {
    "molecule": "CCNC(=S)NNC(=O)CSc1nc2ccc(I)cc2c(=O)n1Cc1ccccc1",
    "value": "17.3 µM (inactive)"
  }
]

Batch request: GI50 for each of the following molecules.
1. C[C@]12CCC(=O)C=C1CC[C@@H]1[C@@H]2CC[C@]2(C)C(=O)/C(=C\c3ccccc3)C[C@@H]12
2. O=C1NCC(NC(=O)C(F)(F)F)c2c(Br)sc(Br)c21 (stereo unspecified)
3. Nc1nc2c(ncn2C2OC(CO)C(O)C2N)c(=O)[nH]1 (stereo unspecified)
4. COc1ccc(/C=C2\CCC(CNc3ccc(S(N)(=O)=O)cc3)C2=O)cc1 (stereo unspecified)

Result:
1: 23.2 µM (inactive); 2: > 100 µM (inactive); 3: > 100 µM (inactive); 4: 8.53 µM (inactive)
